Test system: HCT-116 colon
procedure.text: NCI-60 one-dose screen, 48 h (100 = growth as untreated, 0 = no growth, -100 = all killed)
test.context: 10 µM unless noted
About 83,000 compounds went through this panel and 20% of them were active in at least one assay; those are over-represented in the sample as a whole.
Please provide measured growth for the entries that follow.
Answers are plain numbers, in %.

Example results:
INSERT INTO results (molecule, experimental_target, outcome_measure, value_reported) VALUES
  ('CCN(CC)CCNc1ncnc2c1cnn2-c1ccc(Cl)cc1', 'HCT-116 colon', 'growth', 77.8),
  ('Cc1ccc(C(=O)C(Br)C(Br)c2ccccc2)cc1 (stereo unspecified)', 'HCT-116 colon', 'growth', -65.7),
  ('N=C(N)N=Nc1ccc(NN=C(N)N)c2ccccc12', 'HCT-116 colon', 'growth', 88.8),
  ('CCN(CC)CCOC(=O)c1cccnc1', 'HCT-116 colon', 'growth', 98.1),
  ('OC(c1ccccc1)(c1ccccc1)C(F)(F)F', 'HCT-116 colon', 'growth', 107);

Please turn your attention to the following entry.
input: Report its growth with HCT-116 colon as the test system: CCOc1ccccc1/C=N\N=C(N/N=C/c1ccccc1OCC)N/N=C/c1ccccc1OCC
output: 13.1

* * *

Tested on: SK-MEL-5 melanoma
procedure.text: NCI-60 one-dose screen, 48 h
test.context: 10 µM unless noted
Compounds without any hit were thinned out: in the full panel of roughly 83,000, 20% have a hit. Active and inactive are the calls of the source. The calls were made as follows: active = growth percent below 10; inactive = the rest.
Please reply with one of these outcomes: True (active), False (inactive)

Field: example entries. Status: answers known.
INSERT INTO results (compound, qualitative_label) VALUES
  ('CCC(C)[C@H](NC(=O)Nc1cc(C(F)(F)F)cc(C(F)(F)F)c1)C(=O)N[C@@H](Cc1cn(C)cn1)C(=O)OC (stereo not given in full)', 'True'),
  ('CC(C)(C)c1cc(C[P+](c2ccc(Cl)cc2)(c2ccc(Cl)cc2)c2ccc(Cl)cc2)cc(C(C)(C)C)c1O', 'False'),
  ('COc1cccc(Cn2cc3c(c2)-c2oncc2CC3)c1', 'True'),
  ('N=C(N)N=Nc1ccc(NN=C(N)N)cc1', 'False'),
  ('CCOC(=O)c1c2c(cn1Cc1ccccc1)-c1oncc1CC2', 'False');

input: Record request — test call for CCCCCCCCCCN1CC2CCCCC2C1 (stereo not given)
output: False

input: Tell me the assay call for Cc1ccc(NC(=O)CCl)cc1Cl please.
output: False

input: What classification did CC([C@H]1CCC2C3CCC4C[C@@H](N)CC[C@]4(C)C3CC[C@@]21C)N(C)C (stereo not given in full) end up with in this test?
output: True

input: Look up the recorded call for C#CCCCCCCC[C@@H]1OC(=O)[C@H]([C@@H](C)CC)NC(=O)[C@H]([C@@H](C)CC)NC(=O)CC(=O)[C@@H]1C in this test.
output: False

input: Outcome? COc1cc(OC)c2c(=O)cc(-c3ccccc3)oc2c1
output: False

* * *

System: MOLT-4 leukemia
procedure.text: NCI-60 one-dose screen, 48 h (100 = growth as untreated, 0 = no growth, -100 = all killed)
test.context: 10 µM unless noted
This is part of a sample that, as a whole, favours compounds with a hit. Of some 83,000 tested, about 20% had one in any assay.
Output yes for records whose growth is lower than 70%, no for records at or above 70%.

input: Does this molecule meet the criterion growth < 70%? COc1cc(NC(=O)CSc2nc3ccc(Cl)cc3c(=O)n2-c2ccc(F)cc2)cc(OC)c1OC
output: yes

input: Given c1cc(C2CCCCC2)ccc1OCCCCCCN1CCNCC1 , is recorded growth strictly lower than 70%?
output: yes

input: Is the reported growth for CCCCCSc1ccc2nc(NC(=O)OCC)sc2c1 strictly below 70%?
output: yes

input: Dear colleague, could you confirm whether growth of O=C(Nc1cccc2[nH]c(C(F)(F)F)nc12)c1ccc(F)cc1 falls below 70%? Thanks.
output: yes

input: Here's an entry: COc1cc(NC(C)CCCN)c2nccc(C)c2c1OC (stereo not drawn) . Is its growth below 70%?
output: no

input: Please state whether growth is below 70% for CCCCCCCCC/C(=N\NC(=O)c1ccncc1)c1ccc(O)c(O)c1O
output: yes

input: Does the reported growth of COc1ccc(-c2nc(SCC(C)C)nc(Nc3ccccc3)c2C#N)cc1 stay below 70%?
output: no

* * *

Test system: MALME-3M melanoma
procedure.text: NCI-60 one-dose screen, 48 h
test.context: 10 µM unless noted
This is part of a sample that, as a whole, favours compounds with a hit. Of some 83,000 tested, about 20% had one in any assay. Calls of active or inactive are those of the source. How the source made its calls: active means growth percent below 10; inactive means the rest.
One label from this list, please: Yes (active), No (inactive)

INSERT INTO results (molecule, experimental_target, qualitative_label) VALUES
  ('Cc1ccccc1-n1c(C)nc2cc(NC(=O)c3ccc(Cl)cc3)ccc2c1=O', 'MALME-3M melanoma', 'No'),
  ('Nc1nc2c(c3ncncc13)C(c1cccc(C(F)(F)F)c1)Cc1ncncc1-2 (stereo unspecified)', 'MALME-3M melanoma', 'No'),
  ('CCOc1ccc(Br)cc1/C=C(\C#N)c1ccc([N+](=O)[O-])cc1', 'MALME-3M melanoma', 'No'),
  ('OCC(O)C(O)CC1SCCS1 (stereo unspecified)', 'MALME-3M melanoma', 'No'),
  ('Nc1nc(-c2cccc(Br)c2)cc(-c2cc3ccccc3oc2=O)n1', 'MALME-3M melanoma', 'No');

input: Could you check what this test reported for COc1ccc(-c2nc(SCC(C)C)nc(Nc3ccc(C(=O)O)cc3)c2C#N)cc1 ?
output: Yes

* * *

Tested on: HT29 colon
procedure.text: NCI-60 one-dose screen, 48 h (100 = growth as untreated, 0 = no growth, -100 = all killed)
test.context: 10 µM unless noted
Method: Growth inhibition of the HT29 human tumor cell line is measured as a screen for anti-cancer activity. Cells are grown in 96 well plates and exposed to the test compound for 48 hours. Compounds are tested at a single concentration, which is 10^-5 M for most compounds. The reported endpoint is percent growth (GI% or GIPRCNT), where numbers from 0 - 100% represent growth inhibition, and numbers from -100% - 0 represent cell death. For example, a value of 40 represents 60% growth inhibition. […]
The panel holds about 83,000 compounds, 20% with a hit somewhere; the sample as a whole holds those more often. Active and inactive are the calls of the source. How the source made its calls: active means growth percent below 10; inactive means the rest.
outcome.measure: growth

Completed entries (count: 8):
INSERT INTO assay_data (compound, value_reported) VALUES
  ('O=C(N/N=C\c1ccc(Cl)cc1)C(=O)N/N=C\c1ccc(Cl)cc1', '103% (inactive)'),
  ('CCCCCCCCCCCCCCCCNC(=S)N/N=C/c1ccc(OC)cc1', '102% (inactive)'),
  ('O=C(CCC(=O)N(CCO)CCO)N(CCO)CCO', '98.6% (inactive)'),
  ('COc1ccc(C2CC(=O)c3c(O)cc(OC4OC(COC5OC(C)C(O)C(O)C5O)C(O)C(O)C4O)cc3O2)cc1O (centres undefined)', '102% (inactive)'),
  ('C/C(=N\Nc1cccc(Cl)n1)c1ccccn1', '26.2% (inactive)'),
  ('Cc1cc2c(-c3nc4ccccc4[nH]3)c(O)c(O)cc2c(O)c1-c1c(C)cc2c(-c3nc4ccccc4[nH]3)c(O)c(O)cc2c1O', '10.5% (inactive)'),
  ('O=C1C=C(OCC=C(C(F)(F)F)C(F)(F)F)c2ccccc2C1=O', '6.37% (active)'),
  ('O=C(Oc1ccccc1)c1ccccc1Cl', '118% (inactive)');

Consider the following items and state reported growth for each.
1. O=C(N/N=C/c1cc(Cl)ccc1O)C(=O)N/N=C/c1cc(Cl)ccc1O
2. COc1ccc(Nc2c3ccccc3nc3ccccc23)cc1
3. CC(=O)c1ccc2c(c1)c1ccccc1n2C
4. CCOC(=O)C1=C(C(F)(F)F)NC(=O)NC1CN1C(=O)c2ccccc2C1=O (centres undefined)
5. COc1cc(N)c2nccc(C)c2c1OC

output:
1. 45.4% (inactive)
2. 8.49% (active)
3. 91.1% (inactive)
4. 113% (inactive)
5. 111% (inactive)

Below are 6 compounds. Give each one its growth.
1. O=C(/C=C/c1cccc(O)c1)c1cccc(-n2cc(-c3ccc(Cl)cc3)[nH]c2=O)c1
2. NC(CSC(c1ccccc1)(c1ccccc1)c1ccccc1)C(=O)NCC(=O)O (centres undefined)
3. CC(C)(C)c1ccc([I+]c2ccc(C(C)(C)C)cc2)cc1
4. O=C(/C=C\c1ccc(NCc2ccc(C(=O)O)cc2)cc1)CCl
5. O=S(=O)(O)CCI
6. O=c1c2c(c3ccccc3n1-c1ccccc1)NC(=S)NC2c1ccccc1 (centres undefined)

output:
1. -10.1% (active)
2. 101% (inactive)
3. 11% (inactive)
4. 84.9% (inactive)
5. 116% (inactive)
6. 132% (inactive)

Record growth per entry; entries follow.
1. COc1ccc2c(c1)cn1c3ccc(O)cc3[nH]c(=O)c21
2. NNC(=O)CNc1ccc2ccccc2c1
3. COCC(=O)NNc1[nH]c(-c2ccc(OC)cc2)cc1C#N
4. Nc1nc2cc(O)ccc2n2cc3c(F)cccc3c12

output:
1. -43.1% (active)
2. 106% (inactive)
3. 110% (inactive)
4. 20.7% (inactive)

Give me growth for each of these compounds, listed below.
1. Oc1ccccc1\C=N/N=C/C=C/c1ccccc1
2. Cc1nc2c(nnn2-c2ccccc2)c2nc(-c3ccccc3)oc(=O)c12
3. COC(=O)C1CC(=O)N(C(=O)Nc2ccc(Cl)cc2Cl)C1 (centres undefined)

output:
1: 92.3% (inactive); 2: 113% (inactive); 3: 101% (inactive)

Each compound below has a recorded value; state its growth.
1. C=CN(C)S(C)(=O)=O
2. O=CN/N=C/c1ccc(Cl)c([N+](=O)[O-])c1
3. CC(CCN1CCN(CCC(C)CC(C)(C)C)C1CC(C)CC(C)(C)C)CC(C)(C)C (centres undefined)

output:
["72.1% (inactive)", "6.89% (active)", "39.4% (inactive)"]

# per-item lookup of growth; items listed below
1. CCOc1ccc2nc3ccc(Cl)cc3nc2c1
2. O=C(O)/C(Br)=C/c1c[nH]c2ccc(Br)cc12
3. CCOC(=O)C1=NN(c2ccccc2)C2=NC(=O)/C(=C\c3cn(-c4ccccc4)nc3-c3cc4ccccc4o3)C(=O)N12
4. Cc1c([C@H](C(Cl)Cl)[C@H](O)[C@H]2C[C@H](C)C(=O)O2)ccc2c1C(=O)[C@H]1[C@H]2C[C@@H](Br)[C@@]23O[C@@H](CO[C@H]2O)CC13C (some centres undefined)

output:
90.5% (inactive)
106% (inactive)
98% (inactive)
13.1% (inactive)

Please state growth for every compound in the list that follows.
1. CC(=O)Nc1nc(C)c(C(=O)NN)s1
2. c1ccc(Nc2ncc3c(n2)-c2cccn2CC3)cc1
3. COc1ccc(-n2nnnc2-c2cn[nH]c2C(F)(F)F)cc1
4. Cc1c(CN(C)C)cc(C(C)C)cc1C(C)C
5. COC(=O)c1cc(Nc2ccc(O)c3c2C(=O)c2c([N+](=O)[O-])ccc(O)c2C3=O)cc(C(=O)OC)c1

output:
106% (inactive)
114% (inactive)
93.1% (inactive)
86.4% (inactive)
36.5% (inactive)

Batch: growth for all items listed.
1. CC[C@@H](C)/C=C(C)/C=C/C(=O)c1c(O)c(-c2ccc(OC(=O)[C@@]34CC[C@@](C)(C(=O)O3)C4(C)C)cc2)cn(O)c1=O
2. CC#Cc1nc(Nc2cc(C)[nH]n2)c2ccccc2n1

output:
["59.7% (inactive)", "2.45% [100 µM] (active)"]
